Each entry below carries its recorded Antibody Specificity (Relative Potency to METH), mAb4G9.
# Test system: mAb4G9
# protocol: RIA cross-reactivity profile, inhibition of [3H]-(+)METH binding to mAb4G9
# Design: species or system mouse
# condition-info: RIA IC50 value for METH/RIA IC50 value for test ligand
When you answer, write just the number.

Reference set (2 entries):
| molecule | data-value |
| --- | --- |
| CNC(C)Cc1ccc(O)cc1 (stereo not shown) | 0.106 |
| CNC(C)Cc1ccc2c(c1)OCO2 (single isomer, unassigned; (+)) [(+)MDMA, (+)-3,4-methylenedioxymethamphetamine] | 0.29 |

What is its Antibody Specificity (Relative Potency to METH), mAb4G9 for mAb4G9? Entry: CC(N)Cc1ccccc1 (single isomer, unassigned; (+)) [(+)AMP, (+)-amphetamine]
0.34

Sourced from patent US8853146B2
